Target: UniProtKB Q61083
Sequence (Q61083 whole entry): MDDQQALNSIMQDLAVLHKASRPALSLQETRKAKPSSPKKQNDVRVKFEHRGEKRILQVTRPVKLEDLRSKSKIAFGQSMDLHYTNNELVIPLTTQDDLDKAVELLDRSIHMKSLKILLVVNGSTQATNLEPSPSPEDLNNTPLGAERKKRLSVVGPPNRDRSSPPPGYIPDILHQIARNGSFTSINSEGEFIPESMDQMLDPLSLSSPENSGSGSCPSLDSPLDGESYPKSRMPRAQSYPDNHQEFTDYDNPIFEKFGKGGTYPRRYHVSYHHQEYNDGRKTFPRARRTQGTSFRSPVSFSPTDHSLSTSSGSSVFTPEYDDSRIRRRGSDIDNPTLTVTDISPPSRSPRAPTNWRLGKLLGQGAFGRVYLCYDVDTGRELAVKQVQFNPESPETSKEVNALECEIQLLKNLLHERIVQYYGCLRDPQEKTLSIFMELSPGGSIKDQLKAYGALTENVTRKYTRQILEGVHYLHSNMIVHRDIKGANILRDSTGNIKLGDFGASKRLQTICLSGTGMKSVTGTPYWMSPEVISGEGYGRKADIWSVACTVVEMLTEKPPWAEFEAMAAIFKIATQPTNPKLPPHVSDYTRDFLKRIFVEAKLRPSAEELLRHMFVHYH
Test: MEKK2 PhosphoELISA (mMEKK2/MKK4)
Type: biochemical
Details: substrate MKK4/SKK1 (unactive), ATP final 10 μM, O.D. 450 nm
Please go through the items and note down their IC50.

compound: N#Cc1c(-c2ccc(OC(F)(F)F)cc2)nc(SCc2cccc(NC(=O)c3ccc(Cl)c(Cl)c3)c2)[nH]c1=O [Example 2hh]
recorded.measurement: < 20 µM

compound: N#Cc1c(-c2c[nH]c3ccc(Br)cc23)nc(SCc2cccc(NC(=O)c3ccc(Cl)c(Cl)c3)c2)[nH]c1=O [Example 2mm]
recorded.measurement: < 1 µM

compound: N#Cc1c(-c2ccc(-n3cccn3)cc2)nc(SCc2cccc(NC(=O)c3ccc(Cl)c(Cl)c3)c2)[nH]c1=O [Example 4t]
recorded.measurement: < 20 µM

Return reported IC50 values for all items listed beneath this line.
1. N#Cc1c(-c2ccc(-n3ccnc3)cc2)nc(SCc2cccc(NC(=O)c3ccc(Cl)c(Cl)c3)c2)[nH]c1=O [Example 4r]
2. N#Cc1c(-c2ccc(C(F)(F)F)cc2)nc(SCc2cccc(NC(=O)c3ccc(Cl)c(Cl)c3)c2)[nH]c1=O [Example 2ff]

# output
1. < 5 µM
2. < 5 µM

List reported IC50 for each of these compounds:
1. COc1cccc(-c2nc(SCc3cccc(NC(=O)c4ccc(Cl)c(Cl)c4)c3)[nH]c(=O)c2C#N)c1 [Example 2h]
2. N#Cc1c(-c2ccc(-n3cccc3)cc2)nc(SCc2cccc(NC(=O)c3ccc(Cl)c(Cl)c3)c2)[nH]c1=O [Example 4s]
3. COc1cccc(-c2nc(SCc3cccc(NCc4ccc(Cl)c(Cl)c4)c3)[nH]c(=O)c2C#N)c1 [Example 1a]

# output
["< 5 µM", "< 1 µM", "< 1 µM"]
